Counter-ions that a name gives are not always drawn.
attribute measured: melting point

>>> val("NC(=O)Nc1cccc2c1C(=O)c1c-2n[nH]c1-c1csc(Cl)c1 [Example CI]")
"> 300 °C"
>>> val("CN(C)CC1CCCCN1C(=O)c1ccc(-c2[nH]nc3c2C(=O)c2c(NC(=O)NN4CCOCC4)cccc2-3)s1 (stereo not drawn) (as salt: TFA) [Example CLXXII]")
"> 300 °C"
>>> val("COc1ccc(-c2[nH]nc3c2C(=O)c2c(NC(=O)NN4CCOCC4)cccc2-3)cc1 [Example LXVI]")
"> 300 °C"

---

Structures can show the parent of a compound that is named as a salt.
attribute measured: melting point (°C)

>>> val("CCCc1[nH]nc2c1C(=O)c1c(NC(N)=O)cccc1-2 [Example XCII]")
187
>>> val("CC(=O)Nc1cccc2c1C(=O)c1c-2n[nH]c1-c1sccc1C [Example XC]")
275
>>> val("O=C(Nc1cccc2c1C(=O)c1c-2n[nH]c1C1CCN(C(=O)N2CCNCC2)CC1)NN1CCOCC1 (as salt: TFA) [Example CCLXX]")
195
>>> val("COc1ccc(-c2[nH]nc3c2C(=O)c2c(NC(=O)Cc4cc(OC)ccc4OC)cccc2-3)cc1 [Example XIV]")
226
>>> val("COC[C@H]1CCCN1NC(=O)Nc1cccc2c1C(=O)c1c-2n[nH]c1-c1ccc(C(=O)O)s1 (as salt: TFA) [Example CCII]")
258
>>> val("NC(=O)Nc1cccc2c1C(=O)c1c-2n[nH]c1-c1ccco1 [Example CIII]")
278
>>> val("O=C(Nc1cccc2c1C(=O)c1c-2n[nH]c1C1CCN(C(=O)c2cccs2)CC1)NN1CCOCC1 (as salt: TFA) [Example CCLXV]")
218

Measured values drawn from patent US6407103B2 for this set.
